# protocolDescription: sensitizers of A549 cells to miR-34 induction, primary screen, imaging, A549 dox-inducible miR-34, nuclei and caspase counts (AID 1347080)
# conditionParameters: A549 miR-34 inducible, Hoechst nuclei count, 48 h; stronger effect = lower value
measurementName: fold change

1. C[C@]12NC(Cc3ccccc31)c1ccccc12 :: 0.981
2. CN(C)C(=S)SSC(=S)N(C)C :: 0.701
3. COc1c2c(cc3c1OCO3)CCN(C)C2 :: 0.866
4. COc1ccc2c(c1O)-c1cccc3c1[C@@H](C2)N(C)CC3 :: 0.958
5. CCCC(=O)OCC[N+](C)(C)C :: 0.934
6. CC1=C(O)C(=O)C=C2C1=CC=C1[C@@]2(C)CC[C@@]2(C)[C@@H]3C[C@](C)(C(=O)O)CC[C@]3(C)CC[C@]12C :: 0.911

----------
Property: glutamate uptake change; scope: individual compounds
# protocolDescription: enhancers of glutamate uptake in motor neurons, MN-1 cell line (AID 1612);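 further: tested at 1 µM final; 0% = mean of DMSO vehicle wells on each plate; positive means more glutamate uptake than control and negative means less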
# conditionParameters: MN-1 motor neuron cells, stronger effect = higher value
measurementName: glutamate uptake change (%)

1. O=c1[nH]oc2c1CCNC2 :: 5.07
2. CN1CCc2cc3c(cc2[C@H]1[C@@H]1OC(=O)c2c1ccc1c2OCO1)OCO3 :: 4.35
3. CC(=O)O[C@H]1C[C@H](O[C@H]2[C@@H](O)C[C@H](O[C@H]3[C@@H](O)C[C@H](O[C@H]4CC[C@@]5(C)C(CCC6C5C[C@@H](O)[C@]5(C)[C@@H](C7=CC(=O)OC7)CC[C@]65O)C4)O[C@@H]3C)O[C@@H]2C)O[C@H](C)[C@H]1O[C@@H]1O[C@H](CO)[C@@H](O)[C@H](O)[C@H]1O (some centres not stated) :: -5.55
4. O=C1CCCN1CC#CCN1CCCC1 :: 5.01
5. CCC(C)[C@H]1O[C@]2(C=C[C@@H]1C)C[C@@H]1C[C@@H](C/C=C(\C)[C@@H](OC3C[C@H](OC)C(O[C@H]4C[C@H](OC)[C@@H](O)[C@H](C)O4)[C@H](C)O3)[C@@H](C)/C=C/C=C3\CO[C@@H]4[C@H](O)C(C)=C[C@@H](C(=O)O1)[C@]34O)O2 (some centres not stated) :: -28.6
6. CCC1(c2ccc(N)cc2)CCC(=O)NC1=O (configuration not stated) :: 15.1
7. CNC(C)C(=O)c1ccccc1 (configuration not stated) :: -3.86

----------
# protocolDescription: ovarian cancer cell viability with rucaparib, profiling panel, oncology-focused library, rucaparib conditional (AID 1508598)
# conditionParameters: patient-derived ovarian cancer cells, CellTiter-Glo viability, 144 h; at 0.0195 µM; OCI-C5x cells; without rucaparib; stronger effect = lower value
measurementName: viability (%)

1. C/C(=C\c1csc(C)n1)[C@H]1C[C@@H]2O[C@@H]2CCC[C@H](C)[C@H](O)[C@@H](C)C(=O)C(C)(C)[C@H](O)CC(=O)O1 :: 22
2. C/C(=C\c1csc(C)n1)[C@H]1C[C@@H]2O[C@]2(C)CCC[C@H](C)[C@H](O)[C@@H](C)C(=O)C(C)(C)[C@H](O)CC(=O)O1 :: 27.5
3. O=S(=O)(CC1CS1)c1ccc(Oc2ccccc2)cc1 (centres undefined) :: 112
4. Cc1sc2c(c1C)C(c1ccc(Cl)cc1)=N[C@@H](CC(N)=O)c1nnc(C)n1-2 :: 66.5

----------
Below, each entry is listed alongside its reported inhibition.
# protocolDescription: growth inhibition of CRL1545 osteosarcoma cells, cell-based, cisplatin and BGB IC20 combos (AID 1671464);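 further: cells exposed to compound for 96 hours before readout; 0% = vehicle DMSO and 100% = high DMSO killing control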
# conditionParameters: at 0.5 µM, stronger effect = higher value
measurementName: inhibition (%)

1) O=P(O)(NCCCl)NCCCl :: -42.1
2) Cn1c(COP(=O)(NCCBr)NCCBr)cnc1[N+](=O)[O-] :: -36.2
3) NC(Cc1ccc(N(CCCl)CCCl)cc1)C(=O)O (centres undefined) :: -21.6
4) Cc1c2ccncc2c(C)c2c1[nH]c1ccccc12 :: -40.6

----------
# protocolDescription: LFS_MB_2R medulloblastoma cell growth inhibition, synergistic combos for chromothripsis tumors, cisplatin combos (AID 1671457);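 further: cells exposed to compound for four days before readout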
# conditionParameters: LFS_MB_2R medulloblastoma cells, measured here: combination with cisplatin, at 5 µM, stronger effect = higher value
Some compounds, each annotated with its measured inhibition.
measurementName: inhibition

1. Cn1c(COP(=O)(NCCBr)NCCBr)cnc1[N+](=O)[O-] :: -23.3%
2. O=C(O)CCCc1ccc(N(CCCl)CCCl)cc1 :: -25.9%
3. CCC1(c2ccccc2)C(=O)NC(=O)NC1=O :: 0.169%
4. O=P(O)(NCCCl)NCCCl :: -26.8%
5. O=C1CCC[C@@H]2[C@H]3CCCN4CCC[C@@H](CN12)[C@@H]34 :: 60.9%
6. NC(Cc1ccc(N(CCCl)CCCl)cc1)C(=O)O (centres undefined) :: -58.8%
7. Cc1c2ccncc2c(C)c2c1[nH]c1ccccc12 :: 95.3%
8. O=c1[nH]c(=O)n(C2OC(CO)C(O)C2O)cc1F (centres undefined) :: 6.83%
9. Cn1c(CCCC(=O)O)nc2cc(N(CCCl)CCCl)ccc21 :: -14.7%

----------
# protocolDescription: ovarian cancer cell viability with rucaparib, profiling panel, oncology-focused library, rucaparib conditional (AID 1508598)
# conditionParameters: patient-derived ovarian cancer cells, CellTiter-Glo viability, 144 h; at 1.25 µM; OCI-C5x cells; with rucaparib 10 µM; stronger effect = lower value; 100% = cells with rucaparib alone
In this section we review reported viability values for a set of molecules.
measurementName: viability (%)

1) C/C(=C\c1csc(C)n1)[C@H]1C[C@@H]2O[C@@H]2CCC[C@H](C)[C@H](O)[C@@H](C)C(=O)C(C)(C)[C@H](O)CC(=O)O1 :: 25.2
2) CC(C)[C@@]12O[C@@H]1[C@@H]1O[C@]13[C@]1(O[C@@H]1C[C@@H]1C4=C(CC[C@@]13C)C(=O)OC4)[C@@H]2O :: 9.48
3) Cn1cc(C2=C(c3cn(C4CCN(Cc5ccccn5)CC4)c4ccccc34)C(=O)NC2=O)c2ccccc21 :: 149
4) C/C(=C\c1csc(C)n1)[C@H]1C[C@@H]2O[C@]2(C)CCC[C@H](C)[C@H](O)[C@@H](C)C(=O)C(C)(C)[C@H](O)CC(=O)O1 :: 45.2
5) Cn1c(CCCC(=O)O)nc2cc(N(CCCl)CCCl)ccc21 :: 124
6) O=S(=O)(CC1CS1)c1ccc(Oc2ccccc2)cc1 (configuration not stated) :: 117
7) Cc1c(N)nc([C@H](CC(N)=O)NC[C@@H](N)C(N)=O)nc1C(=O)N[C@H](C(=O)N[C@@H](C)[C@H](O)[C@@H](C)C(=O)N[C@@H](C(=O)NCCc1nc(-c2nc(C(=O)NCCC[S+](C)C)cs2)cs1)[C@@H](C)O)C(O[C@H]1O[C@H](CO)[C@H](O)[C@@H](O)[C@H]1O[C@H]1O[C@H](CO)[C@@H](O)[C@H](OC(N)=O)[C@@H]1O)c1cnc[nH]1 (some centres not stated) :: 74.8

----------
# Tested on: Aerobactin synthetase IucA (Klebsiella pneumoniae hvKP1)
# protocolDescription: Biochemical IucA enzyme inhibition primary screen of the Spectrum library (AID 1346200);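 further: 100% = wells without compound and 0% = wells lacking enzyme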
# conditionParameters: malachite green pyrophosphate, A620, at 8 µM, stronger effect = lower value
// activity remaining lookup, one value per entry
measurementName: activity remaining (%)

1. CC(C)c1ccc2c(c1O)CC[C@H]1C3=C(CC[C@]21C)C(=O)OC3 :: 90.4
2. O=C1OC(=O)C2C3CCC(O3)C12 (stereo not given) :: 117
3. C=CCSCC=C :: 109
4. CC(=O)O[C@@H]1CC2C(C)(C)C(=O)[C@@H]3O[C@@H]3[C@]2(C)C2CC[C@]3(C)C(=CC(=O)O[C@H]3c3ccoc3)[C@@]21C (stereo not given in full) :: 99.4
5. CC(=O)O[C@H]1CC[C@@]2(C)C(=CC(=O)C3C4CCC(C(C)CCCC(C)C)[C@@]4(C)CCC32)C1 (stereo not given in full) :: 123

----------
# protocolDescription: UWB1.289_BRCA1 ovarian cancer growth, cell-based, BGB or cisplatin combinations (AID 1671459)
# conditionParameters: UWB1.289 BRCA1 ovarian carcinoma, drug combinations, cisplatin combination, concentration series, at 5 µM, stronger effect = higher value
Threshold rule: inhibition greater than or equal to 20% is YES; below that, NO.

1) O=C1CCC[C@@H]2[C@H]3CCCN4CCC[C@@H](CN12)[C@@H]34 :: NO
2) O=c1[nH]c(=O)n(C2OC(CO)C(O)C2O)cc1F (configuration not stated) :: YES
3) CC1(C)C(C(=O)Nc2ccc(S(=O)(=O)c3ccc(NC(=O)C4C(C)(C)C4(C)C)cc3)cc2)C1(C)C :: NO
4) O=C(O)CCCc1ccc(N(CCCl)CCCl)cc1 :: NO
5) CN(C)NC(=O)CCC(=O)O :: NO
6) Cc1c2ccncc2c(C)c2c1[nH]c1ccccc12 :: YES
7) CCC1(c2ccccc2)C(=O)NC(=O)NC1=O :: NO

Provenance of the data: PubChem BioAssay
